TGI listing for selected compounds.
Tested on: EKVX NSCLC
PROCEDURE_DETAILS: NCI tumour cell line growth inhibition, 48 h

COMPOUND | TGI
CC(=O)[O-].CC(=O)[O-].O=C(N/N=C/c1cc(Cl)cc(Cl)c1[OH2+])c1ccncc1.[Zn+2] | > 100 µM
CCOCC(=O)N[C@H]1CCc2cc(OC(=O)COCC)c(OC)c(OC)c2-c2ccc(SC)c(=O)cc21 | > 100 µM
O=C(O)C(Cc1cnc[nH]1)N=Cc1nc(-c2ccccc2)oc1O (stereo not drawn) | > 100 µM

###

System: HOP-92 NSCLC
PROCEDURE_DETAILS: NCI tumour cell line growth inhibition, 48 h; in the data active = GI50 below about 0.43 µM; inactive = the rest
Classes used: active, inactive

STRUCTURE | CLASS_LABEL
O=c1oc2ccc(F)cc2c(=O)n1-c1ccc(Cl)cc1F | active
Oc1ccccc1Nc1nc2ccccc2c2occc12 | inactive
COc1cc(/C=C/C(=O)C(C(=O)/C=C/c2ccc(OC(=O)CCNc3nnc(C)s3)c(OC)c2)C(=O)CCNc2nnc(C)s2)ccc1OC(=O)CCNc1nnc(C)s1 | inactive
CC1(C)N=C(N)N=C(N)N1c1ccc(OCC(=O)N2CCOCC2)c(Cl)c1 | inactive
COC(=O)c1cc2c3ccccc3n3c(=O)c4cc5cc(OC)c(N(S(=O)(=O)c6ccc(C)cc6)S(=O)(=O)c6ccc(C)cc6)cc5nc4c(n1)c23 | inactive
O=C(N/N=c1/ccoc2cccnc12)N1CCN(c2ncccn2)CC1 | active
CCCCCCCCCCCCSC(=NC)NC | inactive
Cc1ccc(NSc2ccccc2[N+](=O)[O-])cc1 | inactive
CCN(CC)CCCNc1nc2ccccc2c2c(=O)c3cc(Cl)ccc3sc12 | inactive
